- Test system: SR
- assayName: Antiproliferative activity against human SR cells assessed as reduction in cell growth
- Format: functional, cell-based
Active and inactive are the calls of the source. The calls are words filed in the database; no cut-off is given here.
In this exercise, the only acceptable responses are label 1 (active), label 0 (inactive)

Examples with answers:
molecularString: COc1cc(N2CCC(NC(=O)CCOCCOCCOCCOCCC(=O)N[C@H](C(=O)N3C[C@H](O)C[C@H]3C(=O)NCc3ccc(-c4scnc4C)cc3)C(C)(C)C)CC2)ccc1Nc1ncc(Cl)c(Nc2ccccc2P(C)(C)=O)n1
targetUnderTest: SR
labelValue: label 0
--
molecularString: COc1cc(N2CCC(NC(=O)CCCCCCCC(=O)N[C@H](C(=O)N3C[C@H](O)C[C@H]3C(=O)NCc3ccc(-c4scnc4C)cc3)C(C)(C)C)CC2)ccc1Nc1ncc(Cl)c(Nc2ccccc2P(C)(C)=O)n1
targetUnderTest: SR
labelValue: label 1
--
molecularString: COc1cc(N2CCC(N3CCN(C(=O)CCOCCOCCOCCC(=O)N[C@H](C(=O)N4C[C@H](O)C[C@H]4C(=O)NCc4ccc(-c5scnc5C)cc4)C(C)(C)C)CC3)CC2)ccc1Nc1ncc(Cl)c(Nc2ccccc2P(C)(C)=O)n1
targetUnderTest: SR
labelValue: label 0

// query Name the outcome recorded for COc1cc(N2CCC(NC(=O)CCCCC(=O)N[C@H](C(=O)N3C[C@H](O)C[C@H]3C(=O)NCc3ccc(-c4scnc4C)cc3)C(C)(C)C)CC2)ccc1Nc1ncc(Cl)c(Nc2ccccc2P(C)(C)=O)n1 in the assay.
// result label 1

// query Name the outcome recorded for COc1cc(N2CCC(N3CCN(C(=O)CCOCCOCCOCCOCCC(=O)N[C@H](C(=O)N4C[C@H](O)C[C@H]4C(=O)NCc4ccc(-c5scnc5C)cc4)C(C)(C)C)CC3)CC2)ccc1Nc1ncc(Cl)c(Nc2ccccc2P(C)(C)=O)n1 in the assay.
// result label 0

----------
Consider the following compounds and their measured IC50 readings.
- Tested on: NCI-H69
- assayName: Antiproliferative activity against human NCI-H69 cells assessed as inhibition of cell proliferation
- Assay type: functional, cell-based
Write down the numeric answer in µM and omit the unit.

molecularString: COc1cc(N2CCC(N3CCN(C)CC3)CC2)ccc1Nc1ncc(Cl)c(Nc2ccccc2P(C)(C)=O)n1
targetUnderTest: NCI-H69
IC50 [µM]: 2.6

The reported value for COc1cc(N2CCC(NC(=O)CCCCCCCCCC(=O)N[C@H](C(=O)N3C[C@H](O)C[C@H]3C(=O)NCc3ccc(-c4scnc4C)cc3)C(C)(C)C)CC2)ccc1Nc1ncc(Cl)c(Nc2ccccc2P(C)(C)=O)n1 in terms of IC50 is 0.799

----------
- targetUnderTest: von Hippel-Lindau disease tumor suppressor/ALK tyrosine kinase receptor/Echinoderm microtubule-associated protein-like 4 (Homo sapiens, UniProt P40337+Q9HC35+Q9UM73, G1202R)
- Sequence (P40337 whole entry, stated change not applied): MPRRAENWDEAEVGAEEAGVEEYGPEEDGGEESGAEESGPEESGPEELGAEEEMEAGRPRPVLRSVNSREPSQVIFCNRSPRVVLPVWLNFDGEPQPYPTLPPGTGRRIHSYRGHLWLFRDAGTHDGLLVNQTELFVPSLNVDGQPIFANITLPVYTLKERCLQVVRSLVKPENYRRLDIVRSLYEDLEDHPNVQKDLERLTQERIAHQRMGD
- Sequence (Q9HC35 whole entry, stated change not applied): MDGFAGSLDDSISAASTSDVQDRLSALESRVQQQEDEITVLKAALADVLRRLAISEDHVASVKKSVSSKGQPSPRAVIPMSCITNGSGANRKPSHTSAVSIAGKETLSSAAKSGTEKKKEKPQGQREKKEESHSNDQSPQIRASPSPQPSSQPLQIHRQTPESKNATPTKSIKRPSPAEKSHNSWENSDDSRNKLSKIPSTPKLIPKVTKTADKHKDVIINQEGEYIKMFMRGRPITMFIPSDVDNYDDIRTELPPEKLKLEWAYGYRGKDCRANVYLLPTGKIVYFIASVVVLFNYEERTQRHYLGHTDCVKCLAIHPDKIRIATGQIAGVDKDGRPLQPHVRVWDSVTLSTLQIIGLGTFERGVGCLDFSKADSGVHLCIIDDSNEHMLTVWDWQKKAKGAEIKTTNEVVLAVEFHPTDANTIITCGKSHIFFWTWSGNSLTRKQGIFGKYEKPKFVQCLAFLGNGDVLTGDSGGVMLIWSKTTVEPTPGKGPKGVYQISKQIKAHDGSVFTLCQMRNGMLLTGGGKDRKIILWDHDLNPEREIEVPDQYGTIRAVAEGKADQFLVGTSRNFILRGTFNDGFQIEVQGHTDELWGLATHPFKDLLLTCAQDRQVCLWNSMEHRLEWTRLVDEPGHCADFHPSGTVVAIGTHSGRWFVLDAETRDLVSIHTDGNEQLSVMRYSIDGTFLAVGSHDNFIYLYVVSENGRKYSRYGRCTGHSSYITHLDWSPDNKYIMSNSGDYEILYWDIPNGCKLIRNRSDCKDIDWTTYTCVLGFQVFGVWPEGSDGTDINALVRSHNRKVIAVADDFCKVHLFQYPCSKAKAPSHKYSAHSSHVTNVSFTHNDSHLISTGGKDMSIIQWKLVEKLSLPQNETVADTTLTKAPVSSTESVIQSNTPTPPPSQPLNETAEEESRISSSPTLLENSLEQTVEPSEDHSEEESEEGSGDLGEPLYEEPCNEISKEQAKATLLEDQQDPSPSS
- Sequence (Q9UM73 19-1620 G1202R limits assumed, stated change not applied): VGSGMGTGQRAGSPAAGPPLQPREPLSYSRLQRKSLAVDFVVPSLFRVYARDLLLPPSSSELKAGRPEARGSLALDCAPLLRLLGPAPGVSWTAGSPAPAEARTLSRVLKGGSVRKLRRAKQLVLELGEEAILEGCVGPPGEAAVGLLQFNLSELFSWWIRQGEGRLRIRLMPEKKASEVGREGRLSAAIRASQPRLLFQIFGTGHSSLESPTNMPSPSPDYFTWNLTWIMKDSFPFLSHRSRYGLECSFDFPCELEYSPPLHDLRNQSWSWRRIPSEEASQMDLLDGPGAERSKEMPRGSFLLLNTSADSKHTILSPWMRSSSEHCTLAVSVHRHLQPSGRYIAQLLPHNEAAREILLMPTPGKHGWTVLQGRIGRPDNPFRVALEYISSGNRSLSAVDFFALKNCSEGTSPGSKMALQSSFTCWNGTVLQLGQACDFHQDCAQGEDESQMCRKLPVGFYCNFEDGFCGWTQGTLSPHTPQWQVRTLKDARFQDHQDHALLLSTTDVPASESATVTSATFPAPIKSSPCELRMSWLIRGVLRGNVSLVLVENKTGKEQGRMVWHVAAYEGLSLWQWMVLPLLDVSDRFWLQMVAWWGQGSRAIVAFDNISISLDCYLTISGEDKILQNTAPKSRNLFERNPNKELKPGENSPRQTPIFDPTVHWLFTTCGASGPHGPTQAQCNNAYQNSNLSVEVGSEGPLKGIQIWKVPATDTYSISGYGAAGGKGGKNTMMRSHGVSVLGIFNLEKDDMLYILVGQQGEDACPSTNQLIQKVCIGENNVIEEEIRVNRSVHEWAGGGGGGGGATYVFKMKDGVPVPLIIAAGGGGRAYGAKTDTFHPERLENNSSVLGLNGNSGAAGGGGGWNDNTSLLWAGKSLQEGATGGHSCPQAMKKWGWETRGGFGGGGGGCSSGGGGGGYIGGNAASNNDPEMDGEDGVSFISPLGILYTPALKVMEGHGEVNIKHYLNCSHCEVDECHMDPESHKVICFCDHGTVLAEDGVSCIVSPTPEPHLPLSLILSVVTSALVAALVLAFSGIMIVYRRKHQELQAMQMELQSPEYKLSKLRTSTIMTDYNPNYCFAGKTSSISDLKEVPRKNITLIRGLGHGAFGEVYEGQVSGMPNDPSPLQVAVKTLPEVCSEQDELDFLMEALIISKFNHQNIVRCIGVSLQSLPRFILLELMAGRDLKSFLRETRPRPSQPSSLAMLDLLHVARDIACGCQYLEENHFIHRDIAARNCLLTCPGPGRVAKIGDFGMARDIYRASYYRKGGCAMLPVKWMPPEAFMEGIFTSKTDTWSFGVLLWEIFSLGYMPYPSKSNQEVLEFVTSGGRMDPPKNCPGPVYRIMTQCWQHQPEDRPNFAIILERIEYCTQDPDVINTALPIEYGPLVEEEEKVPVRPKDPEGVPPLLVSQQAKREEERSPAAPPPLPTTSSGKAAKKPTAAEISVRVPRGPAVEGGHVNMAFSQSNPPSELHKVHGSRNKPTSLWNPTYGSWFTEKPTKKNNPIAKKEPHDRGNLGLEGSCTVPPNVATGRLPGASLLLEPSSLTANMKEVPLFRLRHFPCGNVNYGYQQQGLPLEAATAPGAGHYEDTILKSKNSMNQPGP
quantityName: IC50 (nM)
Write down the numeric answer in nM and omit the unit.

molecularString: COc1cc(N2CCC(NC(=O)CCCCCCCCCC(=O)N[C@H](C(=O)N3C[C@H](O)C[C@H]3C(=O)NCc3ccc(-c4scnc4C)cc3)C(C)(C)C)CC2)ccc1Nc1ncc(Cl)c(Nc2ccccc2P(C)(C)=O)n1
quantitativeResult: 166

The reported value for COc1cc(N2CCC(NC(=O)CCCCCCCCCC(=O)N[C@H](C(=O)N3C[C@@H](O)C[C@H]3C(=O)NCc3ccc(-c4scnc4C)cc3)C(C)(C)C)CC2)ccc1Nc1ncc(Cl)c(Nc2ccccc2P(C)(C)=O)n1 in terms of IC50 is 608
